Source listed as PubChem BioAssay AID1159580.

testDescription: chemical genetic growth profiling, strain panel (AID 1159580);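 note: tested at 20 µM; growth read once vehicle control cultures reached saturation at 30 °C; 1 = growth at the plate median or of vehicle wells; lower values mean less growth of the strain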
measurementParameters: S. cerevisiae deletion strains, growth OD, locus YMR058W, strain fet3, stronger effect = lower value
In all, about 5,500 compounds went through this assay and about 2,000 (36%) were called active. Another 18% or so got no clear call; they are omitted. The list shows a part of the results.
Exercise: state measured normalized growth for each of the compounds provided.
Answer using only a numeral; do not append any unit.

Problem: Please give the documented normalized growth of `NC(=O)NC(=O)Cc1ccccc1`
Result: 0.978

Problem: Quickly give me recorded normalized growth for `Oc1c(Cl)cc(Cl)cc1Sc1cc(Cl)cc(Cl)c1O`
Result: 0.0603

Problem: Please look at this compound and report its normalized growth: CC(=O)O[C@@H]1CC2C(C)(C)C(=O)C=C[C@]2(C)C2CC[C@]3(C)C(=CC(=O)O[C@H]3c3ccoc3)[C@@]21C (some centres not stated)
Result: 1

Problem: # return recorded normalized growth for entry CN1CCN(C(=O)OC2c3nccnc3C(=O)N2c2ccc(Cl)cn2)CC1 (configuration not stated)
Result: 1

Problem: # return recorded normalized growth for entry `Cc1cc(=O)oc2cc(O)c(O)cc12`
Result: 0.989

Problem: Give normalized growth for CC(C)c1ccc2c(c1)CCC1[C@](C)(CN)CCC[C@]21C (some centres not stated)
Result: 0.932

Problem: Give normalized growth for the following compound: `O=C(OOC(=O)c1ccccc1)c1ccccc1`
Result: 0.953

Problem: // fetch normalized growth given entry `O=C(CC(=O)c1ccccc1)c1ccccc1`
Result: 0.0728

Problem: Query normalized growth for CC(CCC(=O)O)[C@H]1CCC2C3C(=O)C[C@@H]4CC(=O)CC[C@]4(C)C3CC(=O)[C@@]21C (some centres not stated)
Result: 0.999

Problem: Look up normalized growth of `O=C1NC(O)=NC1(c1ccccc1)c1ccccc1` and report it.
Result: 1.01

Problem: Answer with the recorded normalized growth for the compound listed here: CC(=O)O[C@@H]1CC2C(C)(C)[C@H](O)C=C[C@]2(C)C2CC[C@]3(C)C(=CC(=O)O[C@H]3c3ccoc3)[C@@]21C (some centres not stated)
Result: 0.974

Problem: Tell us which normalized growth value is on record for `COC(=O)c1c(OC)cc2c(c1C)Oc1c(Cl)c(O)c(Cl)c(C)c1C(=O)O2`
Result: 0.982

Problem: Using the record for `C[n+]1ccccc1/C=N/O` , state its measured normalized growth.
Result: 1.01

Problem: // Input: `O=C(OCc1ccccc1)c1ccccc1` . Output its normalized growth only.
Result: 0.952

Problem: Provide measured normalized growth value, entry: `COc1cc(C(C)=O)cc(OC)c1O`
Result: 1.02

Problem: Specify normalized growth for `CC(C)C[C@@H](CN)CC(=O)O` and stop.
Result: 1.02

Problem: Give me measured normalized growth, please, for this compound: `CC(=O)Oc1ccc(C(c2ccc(OC(C)=O)cc2)c2ccccn2)cc1`
Result: 1.01

Problem: State its normalized growth for this compound: `N[C@@H](CCC(=O)N[C@@H](CS)C(=O)NCC(=O)O)C(=O)O`
Result: 0.99

Problem: In one line, give reported normalized growth of the entry `CCOC(=O)NNc1nncc2ccccc12` .
Result: 1.01

Problem: Give normalized growth for the following compound: `O=C(O)C1=CCCNC1`
Result: 0.992

Problem: For the compound CCC(C)[C@H]1O[C@]2(C=C[C@@H]1C)C[C@@H]1C[C@@H](C/C=C(\C)[C@@H](OC3C[C@H](OC)C(O[C@H]4C[C@H](OC)[C@@H](O)[C@H](C)O4)[C@H](C)O3)[C@@H](C)/C=C/C=C3\CO[C@@H]4[C@H](O)C(C)=C[C@@H](C(=O)O1)[C@]34O)O2 (some centres not stated) , give its measured normalized growth value.
Result: 1

Problem: Assign normalized growth to the following record: `COC(=O)c1c(C)c2c(c(C)c1O)OC(=O)c1c(C)c(Cl)c(O)c(Cl)c1O2`
Result: 0.95

Problem: // Input: `CNCCCC12CCC(c3ccccc31)c1ccccc12` . Output its normalized growth only.
Result: 0.952

Problem: Give normalized growth for the following compound: `CC(C)(C)NC[C@H](O)c1ccc(O)c(CO)c1`
Result: 1.02

Problem: Give normalized growth for the following compound: `CS(=O)(=O)c1ccc([C@@H](O)[C@@H](CO)NC(=O)C(Cl)Cl)cc1`
Result: 1.03

Problem: Kindly indicate its recorded normalized growth. Item: O=P1(N(CCCl)CCCl)NCCCO1 (configuration not stated)
Result: 0.99

Problem: Name the recorded normalized growth of the compound listed here: `C=C1C[C@]23C[C@@]1(O)CC[C@H]2[C@@]12C=C[C@H](O)[C@@](C)(C(=O)O1)[C@H]2[C@@H]3C(=O)O`
Result: 1.03

Problem: For the compound `CN[C@@H]1[C@H](O)[C@H](NC)[C@H]2O[C@@]3(O)C(=O)C[C@@H](C)O[C@H]3O[C@@H]2[C@H]1O` , report normalized growth.
Result: 1.01

Problem: Give the reported value of normalized growth for this record: `CC(=O)Oc1ccc(O)cc1`
Result: 0.979

Problem: Provide measured normalized growth value, entry: `NC1=NCCN1CC(=O)O`
Result: 1.02

Problem: Please list normalized growth recorded for the compound `Cc1cc(=O)oc2cc(O)cc(O)c12`
Result: 0.967

Problem: Provide measured normalized growth value, entry: `O=C(O)c1cc(O)c2c(c1)[C@@H]([C@H]1c3cc(C(=O)O)cc(O)c3C(=O)c3c(O[C@H]4O[C@H](CO)[C@@H](O)[C@H](O)[C@H]4O)cccc31)c1cccc(O[C@H]3O[C@H](CO)[C@@H](O)[C@H](O)[C@H]3O)c1C2=O`
Result: 1.03

Problem: Given `NCC(=O)c1ccccc1` , respond with its normalized growth.
Result: 1.01

Problem: Provide only the value of recorded normalized growth for `CC(C)=CCc1c2c(c3occ(-c4ccc(O)cc4)c(=O)c3c1O)C=CC(C)(C)O2`
Result: 0.429

Problem: Look up normalized growth of CC(CCc1ccccc1)NCC(O)c1ccc(O)c(C(N)=O)c1 (configuration not stated) and report it.
Result: 1

Problem: Recall and state the measured normalized growth for CC(=O)OCC(=O)[C@@]1(O)[C@H](C)CC2C3CCC4=CC(=O)C=C[C@]4(C)[C@@]3(F)[C@@H](O)C[C@@]21C (some centres not stated) .
Result: 0.97

Problem: Specify normalized growth for CC(C)(C)NCC(O)c1ccc(O)c(CO)c1 (configuration not stated) and stop.
Result: 1

Problem: Identify the reported normalized growth for the following entry. `CC1=CC(=O)c2c(O)cccc2C1=O`
Result: 0.0576

Problem: Write down normalized growth measured for item CC(=O)O[C@@H]1C=C[C@@]2(C)C(C[C@@H](OC(C)=O)[C@@]3(C)C4=CC(=O)O[C@@H](c5ccoc5)[C@]4(C)CCC23)C1(C)C (some centres not stated)
Result: 0.984

Problem: Write down normalized growth measured for item `CCN(CC)CCOC(=O)C1(C2CCCCC2)CCCCC1`
Result: 0.983

Problem: In one line, give reported normalized growth of the entry CC(C)c1ccc2c(c1)CCC1C(C)(C(N)=O)CCCC21C (configuration not stated) .
Result: 0.958

Problem: Report measured normalized growth; entry is `CC1=CC(=O)c2ccccc2C1=O`
Result: 0.832
